- SUBJECT_OF_TEST: His-tagged recombinant human TrkA (Homo sapiens, UniProt P04629)
- Construct: 6HIS tagged cytoplasmic domain from Invitrogen, Catalog No. PV3144
- Sequence (P04629 440-796 limits assumed): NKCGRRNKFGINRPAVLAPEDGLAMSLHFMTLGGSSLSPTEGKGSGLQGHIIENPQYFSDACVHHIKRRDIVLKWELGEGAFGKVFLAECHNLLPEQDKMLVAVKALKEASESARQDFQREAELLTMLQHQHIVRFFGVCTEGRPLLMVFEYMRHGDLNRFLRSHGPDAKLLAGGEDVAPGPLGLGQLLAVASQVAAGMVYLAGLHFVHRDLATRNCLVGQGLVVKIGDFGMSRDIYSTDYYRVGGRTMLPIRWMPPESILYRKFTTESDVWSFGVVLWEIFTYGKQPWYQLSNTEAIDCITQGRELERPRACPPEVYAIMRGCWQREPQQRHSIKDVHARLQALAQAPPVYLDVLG
- METHOD_SUMMARY: TrkA Kinase Binding Assay (LanthaScreen Eu)
- CONDITION: averaged IC50; TR-FRET binding, 60 min, 22° C.; read-out: TrkA Enzyme IC50
PROPERTY: IC50

Q: Field request: IC50 | item: `CNC(=O)c1nn(-c2ccccc2)c(NC(=O)NCc2cc(COC)ccc2OC(F)F)c1C`
Ans: < 100 nM

Q: Field request: IC50 | item: `COCc1ccc(OC(F)(F)F)c(CNC(=O)Nc2c(C)c(OC[C@@H]3CCC(=O)N3)nn2-c2ccccc2)c1`
Ans: < 100 nM

Further cases:
Q: Field request: IC50 | item: `COCc1ccc(OC(F)(F)F)c(CNC(=O)Nc2c(C)c(-c3ccc(C)nc3)nn2-c2ccccc2)c1`
Ans: < 100 nM

====

# key: entry, value: IC50
- SUBJECT_OF_TEST: His-tagged recombinant human TrkA (Homo sapiens)
- Construct: 6HIS tagged cytoplasmic domain from Invitrogen, Catalog No. PV3144
- METHOD_SUMMARY: TrkA Kinase Binding Assay (LanthaScreen Eu)
- CONDITION: averaged IC50; TR-FRET binding, 60 min, 22° C.; read-out: TrkA Enzyme IC50

Q: Field request: IC50 | item: `COCc1ccc(OC(F)(F)F)c(CNC(=O)Nc2c(C)c(O[C@H]3CN(C)C[C@H]3F)nn2-c2ccccc2)c1`
Ans: < 100 nM

Q: Field request: IC50 | item: `COCc1ccc(C2(F)COC2)c(CNC(=O)Nc2c(C)c(-c3ccc(C)nc3)nn2-c2ccccc2)c1`
Ans: 100 to 1000 nM

Q: Field request: IC50 | item: `CNC(=O)c1nn(-c2ccccc2)c(NC(=O)NCc2cc(COC)ccc2OCC(F)(F)F)c1C`
Ans: 100 to 1000 nM

Q: Field request: IC50 | item: `COCc1ccc(C(C)(C)C)c(CNC(=O)Nc2c(C)c(-c3cnn(C)c3)nn2-c2ccccc2)c1`
Ans: < 100 nM

Q: Field request: IC50 | item: `COCc1ccc(OC(F)F)c(CNC(=O)Nc2c(C)c(OCC3CCNCC3)nn2-c2ccccc2)c1`
Ans: < 100 nM

Q: Field request: IC50 | item: `COCc1cc(CNC(=O)Nc2c(C)c(-c3cnn(C)c3)nn2-c2ccccc2)c(C2CCC2)cn1`
Ans: < 100 nM

Q: Field request: IC50 | item: `COCc1ccc(C2CC2)c(CNC(=O)Nc2c(C)c(-c3ccc(C)nc3)nn2-c2ccccc2)c1`
Ans: < 100 nM

Next item in the queue.
Q: Field request: IC50 | item: `COCc1ccc(C(C)C)c(CNC(=O)Nc2c(C)c(-c3cnn(C)c3)nn2-c2ccccc2)c1`
Ans: < 100 nM

====

- SUBJECT_OF_TEST: His-tagged recombinant human TrkA (Homo sapiens, UniProt P04629)
- Construct: 6HIS tagged cytoplasmic domain from Invitrogen, Catalog No. PV3144
- METHOD_SUMMARY: TrkA Kinase Binding Assay (LanthaScreen Eu)
- CONDITION: averaged IC50; TR-FRET binding, 60 min, 22° C.; read-out: TrkA Enzyme IC50
PROPERTY: IC50

Q: Field request: IC50 | item: COCc1ccc(OC(F)(F)F)c(CNC(=O)Nc2c(C)c(Oc3ccccc3)nn2-c2ccccc2)c1 [Example 77]
Ans: 0.1 to 1 µM

Q: Field request: IC50 | item: CC(Cc1ccccc1)(NC(=O)Nc1c2c(nn1-c1ccccc1)CCC2)c1ccccc1 (stereo not drawn) [Example 41]
Ans: 0.1 to 1 µM

Q: Field request: IC50 | item: COCc1ccc(OC(F)(F)F)c(CNC(=O)Nc2c(C)c(-c3cnc(OC)nc3)nn2-c2ccccc2)c1 [Example 59]
Ans: < 0.1 µM

Q: Field request: IC50 | item: COCc1ccc(OC(F)(F)F)c(CNC(=O)Nc2c(C)c(C3CCNCC3)nn2-c2ccccc2)c1 [Example 66]
Ans: < 0.1 µM

Q: Field request: IC50 | item: COCc1ccc(CN)c(CNC(=O)Nc2c(C)c(-c3cnn(C)c3)nn2-c2ccccc2)c1 [Example 118]
Ans: 0.1 to 1 µM

Further cases:
Q: Field request: IC50 | item: COCc1ccc(OC(F)(F)F)c(CNC(=O)Nc2c(C)c(OC[C@H](O)CO)nn2-c2ccccc2)c1 [Example 65]
Ans: < 0.1 µM

Q: Field request: IC50 | item: COCc1ccc(C2CC2)c(CNC(=O)Nc2c(C)c(-c3ccc(=O)n(C)c3)nn2-c2ccccc2)c1 [Example 4]
Ans: < 0.1 µM

Q: Field request: IC50 | item: COCc1ccc(C2CC2)c(CNC(=O)Nc2c(C)c(C)nn2-c2ccccc2)c1 [Example 5]
Ans: < 0.1 µM

Q: Field request: IC50 | item: COCc1ccc(C2CC2)c(CNC(=O)Nc2c(C)c(-c3ccn(C)c(=O)c3)nn2-c2ccccc2)c1 [Example 7]
Ans: < 0.1 µM

Q: Field request: IC50 | item: COCc1ccc(C2CCC2)c(CNC(=O)Nc2c(C)c(-c3cnn(C)c3)nn2-c2ccccc2)c1 [Example 11]
Ans: < 0.1 µM

Q: Field request: IC50 | item: COCc1ccc(OC(F)(F)F)c(CNC(=O)Nc2c(C)c(OC[C@H]3COCCN3)nn2-c2ccccc2)c1 [Example 102]
Ans: < 0.1 µM

Q: Field request: IC50 | item: O=C(Nc1c2c(nn1-c1ccccc1)CCC2)NC(Cc1ccccc1)c1ccccc1 (stereo not drawn) [Example 40]
Ans: 0.1 to 1 µM

Q: Field request: IC50 | item: COc1ccccc1CC(Cc1ccccc1)NC(=O)Nc1c2c(nn1-c1ccccc1)CCC2 (stereo not drawn) [Example 48]
Ans: 0.1 to 1 µM

Q: Field request: IC50 | item: COCc1ccc(C2CCC2)c(CNC(=O)Nc2c(C)c(-c3cnc(C)nc3)nn2-c2ccccc2)c1 [Example 10]
Ans: < 0.1 µM

Q: Field request: IC50 | item: O=C(Nc1c2c(nn1-c1ccccc1)CCC2)NC(Cc1ccccc1)Cc1ccccc1Cl (stereo not drawn) [Example 46]
Ans: < 0.1 µM

Q: Field request: IC50 | item: COCc1ccc(OC(F)F)c(CNC(=O)Nc2c(C)c(-c3cnn(C)c3)nn2-c2ccccc2)c1 [Example 20]
Ans: < 0.1 µM

Q: Field request: IC50 | item: COCc1ccc(C(F)(F)F)c(CNC(=O)Nc2c(C)c(-c3cnn(C)c3)nn2-c2ccccc2)c1 [Example 33]
Ans: < 0.1 µM

Q: Field request: IC50 | item: COCc1ccc(OC(F)(F)F)c(CNC(=O)Nc2c(C)c(OCC3CN(C)C3)nn2-c2ccccc2)c1 [Example 75]
Ans: < 0.1 µM

Q: Field request: IC50 | item: COCc1ccc(C2CCC2)c(CNC(=O)Nc2c(C)c(-c3ccc(C)nc3)nn2-c2ccccc2)c1 [Example 8]
Ans: < 0.1 µM
